Assay: Plasma pharmacokinetics of Compound 1 and metabolite 1-7 (LC-MS/MS) in Parts C, D and E
Type: in vivo, human
Settings: human, plasma, oral, 600 mg/d, Part E, Child-Pugh A cirrhotic, 600 mg/d Compound 2 QD, n=6; trough after the first dose; read-out: C24 h Day 1
measured.quantity: concentration at 24 h (ng/mL)
Provide only the numeric value, understood in ng/mL.

Kindly note the recorded concentration at 24 h for C[C@@]1(F)[C@H](O)[C@@H](CO)O[C@H]1n1cnc2c(=O)[nH]c(N)nc21 [Metabolite 1-7] , which is 41.6

---

Assay: Plasma pharmacokinetics of Compound 1 and metabolite 1-7 (LC-MS/MS) in Parts C, D and E
Assay type: in vivo, human
Settings: human, plasma, oral, 150 mg/d, Part C, NC GT1b, 150 mg/d Compound 2 QD, n=6; read-out: Cmax Day 1
measured.quantity: Cmax (ng/mL)
Just the number in ng/mL, nothing appended.

C[C@@]1(F)[C@H](O)[C@@H](CO)O[C@H]1n1cnc2c(=O)[nH]c(N)nc21 [Metabolite 1-7] yielded Cmax of 75.6

---

Assay: Plasma pharmacokinetics of Compound 1 and metabolite 1-7 (LC-MS/MS) in Parts C, D and E
Type: in vivo, human
Conditions: human, plasma, oral, 300 mg/d, Part C, NC GT1b, 300 mg/d Compound 2 QD, n=6; read-out: Cmax Day 1
measured.quantity: Cmax (ng/mL)
// note: answer is a bare numeric in ng/mL

Lab note: C[C@@]1(F)[C@H](O)[C@@H](CO)O[C@H]1n1cnc2c(=O)[nH]c(N)nc21 [Metabolite 1-7] gave Cmax of 123

---

Experiment: Plasma pharmacokinetics of Compound 1 and metabolite 1-7 (LC-MS/MS) in Parts C, D and E
Assay type: in vivo, human
Conditions: human, plasma, oral, 600 mg/d, steady state; Part D, NC GT3, 600 mg/d Compound 2 QD, n=6; read-out: T1/2 SS (converted)
measured.quantity: half-life (h)
Respond with the bare value in h.

Please fill in: half-life reported for C[C@@]1(F)[C@H](O)[C@@H](CO)O[C@H]1n1cnc2c(=O)[nH]c(N)nc21 [Metabolite 1-7] = 27.9

---

Assay: Plasma pharmacokinetics of Compound 1 and metabolite 1-7 (LC-MS/MS) in Parts C, D and E
Format: in vivo, human
Conditions: human, plasma, oral, 300 mg/d, steady state; Part C, NC GT1b, 300 mg/d Compound 2 QD, n=6; read-out: T1/2 SS (converted)
measured.quantity: half-life

Form: compound = C[C@@]1(F)[C@H](O)[C@@H](CO)O[C@H]1n1cnc2c(=O)[nH]c(N)nc21 [Metabolite 1-7] ; half-life = 24.5 h

---

Assay: Plasma pharmacokinetics of Compound 1 and metabolite 1-7 (LC-MS/MS) in Parts C, D and E
Assay type: in vivo, human
Conditions: human, in vivo, 600 mg/d, Part C, NC GT1b, 600 mg/d Compound 2 QD, n=6; read-out: Cmax Day 1
measured.quantity: Cmax (ng/mL)
Quick reminder: number only, in ng/mL, skip the unit.

Input CNc1nc(N)nc2c1ncn2[C@@H]1O[C@H](CO[P@@](=O)(N[C@@H](C)C(=O)OC(C)C)Oc2ccccc2)[C@@H](O)[C@@]1(C)F . Output Cmax: 4210

---

Assay: Plasma pharmacokinetics of Compound 1 and metabolite 1-7 (LC-MS/MS) in Parts C, D and E
Type: in vivo, human
Settings: human, in vivo, 600 mg/d, steady state; Part D, NC GT3, 600 mg/d Compound 2 QD, n=6; read-out: Tmax SS
measured.quantity: Tmax

According to the records, this molecule CNc1nc(N)nc2c1ncn2[C@@H]1O[C@H](CO[P@@](=O)(N[C@@H](C)C(=O)OC(C)C)Oc2ccccc2)[C@@H](O)[C@@]1(C)F displays Tmax of 30 min
